# study-target: TRPC5 (Homo sapiens, UniProt Q9UL62, V455M/Q573T)
# Construct: TRPC5-SYFP2 Q573T
# Sequence (Q9UL62 1-973 V455M/Q573T): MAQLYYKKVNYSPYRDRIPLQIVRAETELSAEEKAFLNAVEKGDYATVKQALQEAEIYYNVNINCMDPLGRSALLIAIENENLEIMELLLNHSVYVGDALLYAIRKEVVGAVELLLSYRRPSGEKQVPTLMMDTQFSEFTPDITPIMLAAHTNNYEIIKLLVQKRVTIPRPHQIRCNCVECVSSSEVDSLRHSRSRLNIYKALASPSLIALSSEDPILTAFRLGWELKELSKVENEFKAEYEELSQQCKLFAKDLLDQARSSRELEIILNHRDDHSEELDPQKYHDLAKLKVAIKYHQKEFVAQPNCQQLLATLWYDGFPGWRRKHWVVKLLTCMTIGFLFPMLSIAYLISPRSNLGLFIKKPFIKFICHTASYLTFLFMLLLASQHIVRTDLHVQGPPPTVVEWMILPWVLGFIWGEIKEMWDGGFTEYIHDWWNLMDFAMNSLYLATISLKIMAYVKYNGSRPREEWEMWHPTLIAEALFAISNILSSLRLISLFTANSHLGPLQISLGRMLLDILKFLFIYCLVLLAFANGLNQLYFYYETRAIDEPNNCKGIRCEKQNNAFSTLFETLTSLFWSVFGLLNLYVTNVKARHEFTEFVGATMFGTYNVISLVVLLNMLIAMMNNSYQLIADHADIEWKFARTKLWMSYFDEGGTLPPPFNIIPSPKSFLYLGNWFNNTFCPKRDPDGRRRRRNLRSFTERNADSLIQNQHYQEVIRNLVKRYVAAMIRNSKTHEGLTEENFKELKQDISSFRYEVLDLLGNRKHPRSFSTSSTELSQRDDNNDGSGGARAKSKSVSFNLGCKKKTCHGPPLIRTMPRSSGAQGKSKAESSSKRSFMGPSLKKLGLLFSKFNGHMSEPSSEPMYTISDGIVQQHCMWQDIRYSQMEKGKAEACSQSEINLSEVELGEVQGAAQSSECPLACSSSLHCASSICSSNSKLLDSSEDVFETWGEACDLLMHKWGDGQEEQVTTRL
# procedure-summary: Fura-2 intracellular calcium assay in transfected HEK […] cells
# conditions-used: read-out: AM237 EC50
metric-name: EC50

Provide value of EC50 for this record tested with TRPC5 (Homo sapiens, UniProt Q9UL62, V455M/Q573T): Cn1c(=O)n(CCCO)c(=O)c2c1nc(Oc1ccc(Cl)c(OC(F)(F)F)c1)n2Cc1ccc(Cl)cc1 [AM237]
0.11 µM
